# IC50 annotations
System: M14
Procedure text: Antiproliferative activity against human M14 cells assessed as cell growth inhibition incubated for 72 hrs by MTS assay
Type: functional, cell-based
Measurement conditions: M14, 72 h
Recorded metric: IC50

- Record smiles: "COc1cc(C(=O)c2cncc(-c3c[nH]c4ccccc34)n2)cc(OC)c1OC"
  Assay target: "M14"
  Result: "19.2 nM"
- Record smiles: "COCCOc1c(OC)cc(C(=O)c2cccc(-c3ccc(C)cc3)n2)cc1OC"
  Assay target: "M14"
  Result: "2.4 nM"
- Record smiles: "COc1cc(C(=O)c2cc(C)cc(-c3ccc(C)cc3)n2)cc(OC)c1OC"
  Assay target: "M14"
  Result: "4.4 nM"
- Record smiles: "COc1cc(C(=O)c2cncc(-c3ccc(C)c(O)c3)n2)cc(OC)c1OC"
  Assay target: "M14"
  Result: "5.2 nM"
- Record smiles: "COc1cc(C(=O)c2nc(-c3ccc(C)c(O)c3)[nH]c2Br)cc(OC)c1OC"
  Assay target: "M14"
  Result: "76.3 nM"
- Record smiles: "COc1cc(C(=O)c2cc(OC)c(OC)c(OC)c2)nc(-c2ccc(C)cc2)c1"
  Assay target: "M14"
  Result: "7.7 nM"
- Record smiles: "COc1cc(C(=O)c2cccc(-c3ccc(C(F)F)cc3)n2)cc(OC)c1OC"
  Assay target: "M14"
  Result: "4.7 nM"
- Record smiles: "COc1cc(C(=O)c2nc(-c3ccc(C(F)F)cc3)ccc2F)cc(OC)c1OC"
  Assay target: "M14"
  Result: "3.2 nM"
- Record smiles: "COc1cc(C(=O)c2nc(-c3ccc(C)c(O)c3)[nH]c2C)cc(OC)c1OC"
  Assay target: "M14"
  Result: "46.6 nM"
- Record smiles: "COc1cc(C(=O)c2nc(-c3ccc(C)cc3)ccc2F)cc(OC)c1OC"
  Assay target: "M14"
  Result: "2.6 nM"

====

Test system: CYP3A
Procedure text: Inhibition of CYP3A in human liver microsomes using testosterone as substrate at 10 uM
Assay type: ADME
Measurement conditions: probe testosterone

- Record smiles: "COc1cc(C(=O)c2nc(-c3ccc(C)c(O)c3)ccc2F)cc(OC)c1OC"
  inhibition at 10 µM / %: 51.8

====

Procedure text: Metabolic stability in mouse liver microsomes assessed as half life in presence of NADPH regenerating system by UPLC-MS analysis
Type: ADME, Microsome
Measurement conditions: microsomes
Decide using t1/2: a value greater than or equal to 40 min is condition met, a smaller one is condition not met.

- Record smiles: "COc1cc(C(=O)c2cccc(-c3ccc(C(F)F)cc3)n2)cc(OC)c1OC"
  Category: "condition not met"
- Record smiles: "COc1cc(C(=O)c2nc(-c3ccc(C)cc3)ccc2F)cc(OC)c1OC"
  Category: "condition not met"
- Record smiles: "COc1cc(C(=O)c2c[nH]c(-c3ccc(C)c(O)c3)n2)cc(OC)c1OC"
  Category: "condition met"
- Record smiles: "COc1cc(C(=O)c2cncc(-c3ccc(C)cc3)n2)cc(OC)c1OC"
  Category: "condition met"
- Record smiles: "COc1cc(C(=O)c2ccnc(-c3ccc(C)c(O)c3)n2)cc(OC)c1OC"
  Category: "condition met"
- Record smiles: "COc1cc(C(=O)c2cc(C)cc(-c3ccc(C)cc3)n2)cc(OC)c1OC"
  Category: "condition not met"
- Record smiles: "COc1cc(-c2n[nH]c3ccc(-c4ccc(C)c(O)c4)nc23)cc(OC)c1OC"
  Category: "condition met"
- Record smiles: "CCc1c(OC)cc(C(=O)c2cccc(-c3ccc(C)c(O)c3)n2)cc1OC"
  Category: "condition met"
- Record smiles: "COc1cc(C(=O)c2cc(OC)c(OC)c(OC)c2)nc(-c2ccc(C)c(O)c2)c1"
  Category: "condition met"
- Record smiles: "COc1cc(C(=O)c2cccc(-c3ccc(C)cc3)n2)cc(OC)c1OC"
  Category: "condition not met"
- Record smiles: "COCCOc1c(OC)cc(C(=O)c2cccc(-c3ccc(C)cc3)n2)cc1OC"
  Category: "condition not met"

====

Listed next: entries and their corresponding IC50.
Tested on: MDA-MB-231
Procedure text: Antiproliferative activity against human MDA-MB-231 cells assessed as cell growth inhibition incubated for 72 hrs by MTS assay
Assay type: functional, cell-based
Measurement conditions: MDA-MB-231, 72 h
Recorded metric: IC50 (µM)

- Record smiles: "COc1cc(C(=O)c2nc(-c3ccc(C)cc3)ccc2F)cc(OC)c1OC"
  Assay target: "MDA-MB-231"
  Numeric result: 0.0023
- Record smiles: "COCCOc1c(OC)cc(C(=O)c2cccc(-c3ccc(C)cc3)n2)cc1OC"
  Assay target: "MDA-MB-231"
  Numeric result: 0.0066
- Record smiles: "COc1cc(C(=O)c2c[nH]c(-c3ccc(C)c(O)c3)n2)cc(OC)c1OC"
  Assay target: "MDA-MB-231"
  Numeric result: 0.0243
- Record smiles: "COc1cc(C(=O)c2cncc(-c3cccc4[nH]ncc34)n2)cc(OC)c1OC"
  Assay target: "MDA-MB-231"
  Numeric result: 0.038
- Record smiles: "COc1cc(C(=O)c2cc(OC)c(OC)c(OC)c2)nc(-c2ccc(C)c(O)c2)c1"
  Assay target: "MDA-MB-231"
  Numeric result: 0.0176

====

Procedure text: Metabolic stability in human liver microsomes assessed as half life in presence of NADPH regenerating system by UPLC-MS analysis
Format: ADME, Microsome
Measurement conditions: liver microsomes

- Record smiles: "COc1cc(C(=O)c2cccc(-c3ccc4c(c3)CCN4)n2)cc(OC)c1OC"
  half-life / min: 15

====

Test system: MDA-MB-231
Procedure text: Antiproliferative activity against human MDA-MB-231 cells assessed as cell growth inhibition incubated for 72 hrs by MTS assay
Format: functional, cell-based
Measurement conditions: MDA-MB-231, 72 h
Please note: IC50 exactly at 30 nM is n. Only values below 30 nM get y.

- Record smiles: "COc1cc(C(=O)c2cc(C)cc(-c3ccc(C)c(N)c3)n2)cc(OC)c1OC"
  Assay target: "MDA-MB-231"
  Category: "y"
- Record smiles: "COc1cc(C(=O)c2cccc(-c3ccc(C)c(NC(C)=O)c3)n2)cc(OC)c1OC"
  Assay target: "MDA-MB-231"
  Category: "n"
- Record smiles: "COc1cc(C(=O)c2cccc(-c3ccc(N(C)C)cc3)n2)cc(OC)c1OC"
  Assay target: "MDA-MB-231"
  Category: "n"
- Record smiles: "COc1cc(-n2ccc3ccc(-c4ccc(C)cc4)nc32)cc(OC)c1OC"
  Assay target: "MDA-MB-231"
  Category: "n"
- Record smiles: "COc1cc(C(=O)c2cc(C)cc(-c3ccc(C)cc3)n2)cc(OC)c1OC"
  Assay target: "MDA-MB-231"
  Category: "y"
- Record smiles: "COc1cc(C(=O)c2cccc(-c3ccc4c(c3)CCN4)n2)cc(OC)c1OC"
  Assay target: "MDA-MB-231"
  Category: "y"
- Record smiles: "COc1cc(C(=O)c2ccnc(-c3ccc(C)c(O)c3)n2)cc(OC)c1OC"
  Assay target: "MDA-MB-231"
  Category: "y"
- Record smiles: "COc1cc(C(=O)c2cncc(-c3ccc(C)cc3)n2)cc(OC)c1OC"
  Assay target: "MDA-MB-231"
  Category: "y"
- Record smiles: "COc1cc(C(=O)c2cc(F)cc(-c3ccc(C(F)F)cc3)c2)cc(OC)c1OC"
  Assay target: "MDA-MB-231"
  Category: "n"
- Record smiles: "COc1cc(C(=O)c2cc(OC)c(OC)c(OC)c2)nc(-c2ccc(C)cc2)c1"
  Assay target: "MDA-MB-231"
  Category: "y"

====

Tested on: M14
Procedure text: Cytotoxicity against paclitaxel resistant human M14 cells measured after 72 hrs […]
Assay type: functional, cell-based
Measurement conditions: M14, 72 h
IC50 overview

- Molecule: "COc1cc2c(c(OC)c1OC)-c1ccc(OC)c(=O)cc1[C@@H](NC(C)=O)CC2 [COLCHICINE]"
  Reading unit: "nM"
  Inequality symbol: ">"
  IC50: 1000
- Molecule: "CC(=O)O[C@H]1C(=O)[C@@]2(C)[C@H]([C@H](OC(=O)c3ccccc3)[C@]3(O)C[C@H](OC(=O)[C@H](O)[C@@H](NC(=O)c4ccccc4)c4ccccc4)C(C)=C1C3(C)C)[C@]1(OC(C)=O)CO[C@@H]1C[C@@H]2O [PACLITAXEL]"
  Reading unit: "nM"
  Inequality symbol: "="
  IC50: 186
- Molecule: "COc1cc(C(=O)c2nc(-c3ccc(C)c(O)c3)ccc2F)cc(OC)c1OC"
  Reading unit: "nM"
  Inequality symbol: "="
  IC50: 4.9

====

System: M14
Procedure text: Cytotoxicity against human M14 cells measured after 72 hrs […]
Assay type: functional, cell-based
Measurement conditions: M14, 72 h
pIC50: −log10 of the molar value.

- Record smiles: "CC(=O)O[C@H]1C(=O)[C@@]2(C)[C@H]([C@H](OC(=O)c3ccccc3)[C@]3(O)C[C@H](OC(=O)[C@H](O)[C@@H](NC(=O)c4ccccc4)c4ccccc4)C(C)=C1C3(C)C)[C@]1(OC(C)=O)CO[C@@H]1C[C@@H]2O"
  pIC50: 9.30
- Record smiles: "COc1cc(C(=O)c2nc(-c3ccc(C)c(O)c3)ccc2F)cc(OC)c1OC"
  pIC50: 8.55
